Assay: Quantitative highthroughput screen to assess conditional lethalithy of SEM cells grown in RPMI1640 with dialyzed fetal bovine serum (RPMI+ds) (AID 1963884); also: nearly all actives have a fitted effect of over 35% in size;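 as to viability: 100% = DMSO control wells and 0% = empty wells without cells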
Settings: SEM B-ALL cells, RPMI+dialyzed FBS, CellTiter-Glo viability, 48 h; series mostly up to 45.8 µM
Records with an inconclusive call do not appear. Calls of active or inactive are those of the source. Calls follow the shape of the dose curve; as a rule, active = well fitted cell-killing curve with a large enough effect; inconclusive = small, poorly fitted or top-dose-only effect, or effect the other way; inactive = no such curve, though single readings can be large or run the other way.
Respond using exactly one of the listed classes: active, inactive

{"columns": ["MOLECULE", "CLASS LABEL"],
 "data": [
  ["OCCN1C[C@H](O)[C@@H](O)[C@H](O)[C@@H]1CO", "inactive"]
]}

Inquiry: Entry `CN[C@@H]1C[C@H]2O[C@@](C)([C@H]1OC)n1c3ccccc3c3c4c(c5c6ccccc6n2c5c31)C(=O)N[C@H]4O` : call = ?
Reply text: active

Inquiry: Entry `Nc1nc(N)nc(-c2cc(Cl)ccc2Cl)n1` : call = ?
Reply text: inactive

Inquiry: Entry `CCOC(=O)C1=C(O)C(=O)N(Cc2ccccc2)C1` : call = ?
Reply text: inactive

Inquiry: Entry `O=C(O)C(=O)Nc1cccc(C2=NN=N[N]2)c1` : call = ?
Reply text: inactive

Inquiry: Entry `Cc1cc(C(=O)NOCCO)c(Nc2ccc(I)cc2F)n(C)c1=O` : call = ?
Reply text: active

----------
Assay: Quantitative highthroughput screen to assess conditional lethalithy of SEM cells grown in RPMI1640 with unreated serum (RPMI+s) (AID 1963883); also: nearly all actives have a fitted effect of over 35% in size;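 as to viability: 100% = DMSO wells and 0% = empty wells without cells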
Details: SEM B-ALL cells, CellTiter-Glo viability, 48 h; series mostly up to 45.8 µM
Results filed as inconclusive are left out. Calls of active or inactive are those of the source. Calls follow the shape of the dose curve; as a rule, active = well fitted cell-killing curve with a large enough effect; inconclusive = small, poorly fitted or top-dose-only effect, or effect the other way; inactive = no such curve, though single readings can be large or run the other way.
Respond using exactly one of the listed classes: 1 (yes) = active, 0 (no) = inactive

Inquiry: Entry `COc1ccc2c(OCc3nnc4ccc(-c5ccccc5)nn34)ccnc2c1` : call = ?
Reply text: 1 (yes)

----------
Test: Quantitative highthroughput screen to assess conditional lethalithy of SEM cells grown in RPMI1640 with unreated serum (RPMI+s) (AID 1963883); also: nearly all actives have a fitted effect of over 35% in size;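 as to viability: 100% = DMSO wells and 0% = empty wells without cells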
Settings: SEM B-ALL cells, CellTiter-Glo viability, 48 h; series mostly up to 45.8 µM
Records with an inconclusive call do not appear. Calls of active or inactive are those of the source. Calls come from the whole dose curve; as a rule, active = well fitted cell-killing curve with a large enough effect; inconclusive = small, poorly fitted or top-dose-only effect, or effect the other way; inactive = no such curve, though single readings can be large or run the other way.

{"columns": ["MOLECULE SMILES", "outcome"],
 "data": [
  ["Cc1[nH]c(=O)c(C#N)cc1-c1ccncc1", "inactive"],
  ["CON=C(C(=O)N[C@@H]1C(=O)N2C(C(=O)O)=C(CSC(=O)c3ccco3)CS[C@H]12)c1csc(N)n1", "inactive"],
  ["NC(=O)NN=Cc1ccc([N+](=O)[O-])o1", "inactive"]
]}

----------
Assay: Viability qHTS for spleen associated tyrosine kinase inhibitor (SYKi) drug resistant MV4-11 cells (AID 1963824); also: nearly all actives have a fitted effect of over 35% in size
Settings: SYKi-resistant MV4-11 viability, CellTiter-Glo, 72 h; series mostly up to 45 µM
Results filed as inconclusive are left out. Activity calls are given as the source filed them. Calls come from the whole dose curve; as a rule, active = well fitted cell-killing curve with a large enough effect; inconclusive = small, poorly fitted or top-dose-only effect, or effect the other way; inactive = no such curve, though single readings can be large or run the other way.
Respond using exactly one of the listed classes: active, inactive

{"columns": ["COMPOUND", "CLASS LABEL"],
 "data": [
  ["Cc1cccc(N(C)C(=S)Oc2ccc3c(c2)C2CCC3C2)c1 (centres undefined)", "inactive"],
  ["NCC(=O)CCC(=O)O", "inactive"],
  ["OC1C=C2C3CN(Cc4cc5c(cc43)OCO5)C2CC1O (centres undefined)", "active"],
  ["Cn1c2ccc(NC(=O)c3ccccc3)cc2c(=O)n2nc(C(=O)O)cc12", "inactive"],
  ["CCC(C)C(=O)Oc1cc(C)ccc1C1(COC(=O)C(C)C)CO1 (centres undefined)", "active"]
]}

Inquiry: Entry `O=C(CCO[C@@H]1O[C@H](CO)[C@@H](O)[C@H](O)[C@H]1O)c1ccc(O)cc1` : call = ?
Reply text: inactive

Inquiry: Entry C=C1CC[C@H]2[C@@](C)(CCC(O)[C@@]2(C)CO)[C@@H]1/C=C/C(=C\C(=O)O)C(=O)O (some centres undefined) : call = ?
Reply text: inactive

Inquiry: Entry Cc1ccnc(NC(=O)C(C)c2cccc(C(=O)c3ccccc3)c2)c1 (centres undefined) : call = ?
Reply text: active

Inquiry: Entry `C[C@]12CCC(=O)C=C1CC[C@@H]1[C@@H]2CC[C@@]2(C)[C@H]1CC[C@]2(O)C(=O)CO` : call = ?
Reply text: inactive

Inquiry: Entry `C=C1CC[C@@H]2[C@](C)(CO)[C@H](O)CC[C@@]2(C)[C@@H]1/C=C/C1=CCOC1=O` : call = ?
Reply text: inactive

Inquiry: Entry CC(C)CC(=O)OC1OC=C(CO[C@@H]2O[C@H](CO)[C@@H](O)[C@H](O)[C@H]2O)C2CC(O)C(O)(CO)C12 (some centres undefined) : call = ?
Reply text: inactive

Inquiry: Entry `O=C(O)CNC(=O)c1nc(Cl)c2ccccc2c1O` : call = ?
Reply text: inactive
